- Assay: inhibition of PEG-3 promoter activity – cell-based, HeLa, luciferase luminescence, primary screen (AID 588405)
- Assay conditions: HeLa PEG-Prom luciferase reporter, overnight, at 20 µM, active compounds read high
In all, about 360,000 compounds went through this assay and about 6,200 (1.7%) were called active. The full list was thinned out, with actives kept by preference.
Overview of recorded inhibition for various compounds
Endpoint name: inhibition (%)

INSERT INTO results (compound, result) VALUES
  ('COc1ccc(C2=NO[C@@H]3C(=O)N(Cc4ccccc4)C(=O)[C@H]23)cc1OC', 21.8),
  ('COc1ccc(S(=O)(=O)N(C)C[C@H]2Oc3c(NC(=O)Nc4ccc5c(c4)OCO5)cccc3C(=O)N([C@H](C)CO)C[C@@H]2C)cc1', -2.6),
  ('O=C1NC(O)CCN1C1CC(O)C(CO)O1 (stereo not given)', 15.2),
  ('FC(F)(F)c1ccccc1Cc1c(-c2ccccc2)nc2c3ccccc3ccn12', -34.1),
  ('COc1ccccc1-n1c(SCC(=O)Nc2cccc(C(=O)O)c2)nnc1-c1ccccc1O', -4.09),
  ('COc1ccc(-c2cc(C(F)(F)F)nc(S(C)(=O)=O)n2)cc1OC', 104),
  ('CCc1nc2ccc(C(=O)NC3CCN(Cc4ccccc4)CC3)cn2c1N(C)CCN1CCOCC1', -22.2),
  ('COc1cc(/C=N/NC(=O)c2cc(-c3ccccc3C)nc3ccccc23)cc(OC)c1O', 10.1),
  ('Cc1c(C(=O)NCC2CC2)sc(=O)n1Cc1cccc(F)c1', -1.67),
  ('Cc1ccc(F)c(S(=O)(=O)NC(=O)C2(C)CCN2C(=O)CCc2cccs2)c1 (stereo not given)', -1.22);

====

Overview of recorded inhibition for various compounds
- Assay: inhibition of PEG-3 promoter activity – cell-based, HeLa, luciferase luminescence, primary screen (AID 588405)
- Assay conditions: HeLa PEG-Prom luciferase reporter, overnight, at 20 µM, active compounds read high
Out of some 360,000 compounds screened, about 6,200 (1.7%) were called active. The sample as a whole holds a higher share of actives than the screen did.
Endpoint name: inhibition (%)

INSERT INTO results (compound, result) VALUES
  ('O=C(Cc1csc(Nc2nc(=S)[nH]c3ccccc23)n1)NCCCN1CCN(c2cccc(Cl)c2)CC1', 53.1),
  ('COc1ccc(NC(=O)Cn2c(-c3ccc(OC)cc3)cn(-c3ccc(C)cc3)c2=O)cc1', -103),
  ('CC1(C(=O)Nc2cccc3cccnc23)CCN1C(=O)CCC1CCCC1 (centres undefined)', 10.3),
  ('O=C(N/N=C\c1cccnc1)c1cc(-c2ccccc2)nc2c(Cl)cccc12', 32.6);

Hey, just so you know, these numbers are from PubChem BioAssay AID588405.
